Value source: patent US20220282217A1

Target: T1, HLA-A02.01 (human)
T1 construct: Purified class I MHC
Experiment: pMHC-I dissociation half-life, 125I-b2m
Listed below: Stability (T1/2 (h)) values for each entry.
Measured Property: Stability (T1/2 (h))

Binder	Observed Result
ALNSEALSVV (also called TMPRSS2: ERG)	2.9
SMNRRPILT (also called TP53, G245S)	0
LLAFWDSQV (also called TP53, AAVG)	12.8
KLMLLRLNL (also called SEC31A(-1))	16.9
VVPCEPPEV (also called TP53, Y220C)	0.9
MNWRPILTII (also called TP53, R248W)	0.4
LLGRNSFEVC (also called TP53, R273C)	0
NSFEVHVCA (also called TP53, R273H)	0
ALNSEALSV (also called TMPRSS2: ERG)	9.1
CMGGMNQRPI (also called TP53, R248Q)	0
SMLTDSLFL (also called VHL, QCIL)	9.8
YMCNSSCMGS (also called TP53, G245S)	0.8
GMNQRPILTI (also called TP53, R248Q)	0.4
RLSSCVPVA (also called TGFBR2(-1))	18.7
GMNWRPILT (also called TP53, R248W)	0
ALSEHCPTT (also called TP53, CSES)	27.3
NSFEVCVCA (also called TP53, R273C)	0
GMNQRPILT (also called TP53, R248Q)	0
GLVDEQQEV (also called SF3B1, K700E)	7.4
GLLAFWDSQV (also called TP53, AAVG)	14.2
